Molecular target: T1, human DLL3 (UniProt Q9NYJ7 27-492)
T1 chain: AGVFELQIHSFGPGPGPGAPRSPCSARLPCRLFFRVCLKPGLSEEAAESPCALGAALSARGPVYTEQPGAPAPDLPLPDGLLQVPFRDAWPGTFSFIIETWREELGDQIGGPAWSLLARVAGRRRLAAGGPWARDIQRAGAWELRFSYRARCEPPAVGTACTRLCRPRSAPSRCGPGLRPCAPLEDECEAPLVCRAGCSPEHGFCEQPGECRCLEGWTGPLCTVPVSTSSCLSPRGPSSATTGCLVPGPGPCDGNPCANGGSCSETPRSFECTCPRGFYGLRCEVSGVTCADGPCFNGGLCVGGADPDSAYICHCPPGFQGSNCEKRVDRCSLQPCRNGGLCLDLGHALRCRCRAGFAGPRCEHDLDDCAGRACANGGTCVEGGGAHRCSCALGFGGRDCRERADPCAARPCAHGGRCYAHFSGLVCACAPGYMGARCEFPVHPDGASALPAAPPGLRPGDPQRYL
Experiment: BLI (ForteBio)
ENDPOINT: Kd (nM)

INSERT INTO measurements (binder, endpoint, observed_value) VALUES
  ('SC16.10 (antibody, V domains shown, murine mAb; V regions only) VH: QVTLKESGPGILQSSQTLSLTCSFSGFSLSTSGMGVGWIRQPSGKGLEWLAHIWWDDVKRYNPVLKSRLTISKDTSSSQVFLKIASVDTADTATYYCARLVDDLYYFDYWGQGTTLTVSS VL: QIVLTQSPAIMSASLGERVTMTCTASSSVSSSYLHWYQQKPGSSPKLWIYSTSNLASGVPTRFSGSGSGTSYSLTISSMEAEDAATYYCHQYHRSPFTFGSGTKLEIK', 'Kd', 4);
